- Test Summary: protein stability index of a GFP-peptide fusion (yeast GPS) (PSI 1-4); higher = more stable; sorted into four equal gates, so the index is relative within each strain
- Condition Notes: doa10∆
Some sequences, each annotated with its measured protein stability index.
Reported Metric: protein stability index

Biosequence: ELMDRTGLKLYSRITLI [RPP1]
Reported Value: 1.57
--
Biosequence: MESIGSDILTAEKMRGN [RRP4]
Reported Value: 3.1
--
Biosequence: NDFKKIGRENENENEDD [POP5]
Reported Value: 3.22
--
Biosequence: DTIDNVKSKIQDKEGIP [RPS31]
Reported Value: 3.22
--
Biosequence: YQLYTSNPSGNYTGWKA [PRE9]
Reported Value: 2.9
--
Biosequence: KALKTNINFASGVKNDI [CDC53]
Reported Value: 3.09
--
Biosequence: QQQMANNNGNPGTTSTG [GAL11]
Reported Value: 3.13
--
Biosequence: DSLASELTLAEQQVKEA [SMC4]
Reported Value: 3.24
--
Biosequence: DQSISKLQSWDKVSSCF [NNF1]
Reported Value: 1.51
--
Biosequence: QIQKNGPEITPEEATTI [PRP8]
Reported Value: 2.85
--
Biosequence: IDKLMLSPSDQFAPAFL [SSN2]
Reported Value: 1.99
--
Biosequence: HHYNPKTKKLNLSAFKI [BRR2]
Reported Value: 2.21
--
Biosequence: FVHYGEIKNDFIMVKGC [RPL3]
Reported Value: 2.06
--
Biosequence: YDLLISTLTTISGNPPL [SRB5]
Reported Value: 2.43
--
Biosequence: PAFTFGAQKDNEKKTEE [YJL041W/NSP1]
Reported Value: 3.35
--
Biosequence: IKHKHKKVKLAVLSYYK [RPS31]
Reported Value: 2.23
--
Biosequence: EAVVDQDVQRTCILHGP [FAS1]
Reported Value: 3.32
--
Biosequence: PNRIKLSKEVPFSYLID [SRB5]
Reported Value: 2.44
--
Biosequence: LELVNTPLTENILIASL [YCG1]
Reported Value: 1.66
--
Biosequence: DIINAVNEIMYKCTAAM [MTW1]
Reported Value: 2.73
--
Biosequence: ELLKSSLQKAGSKMEAK [AAR2]
Reported Value: 3.23
--
Biosequence: NWSKEDLQKLLKGIQEF [SWI3]
Reported Value: 3.27
--
Biosequence: AASKVKLEEESKRGNDK [RPC53]
Reported Value: 3.27
--
Biosequence: ITMPATNGKPDMAILER [ARP7]
Reported Value: 3.17
--
Biosequence: FGNSLSNTVNANNYSSN [YDL088C/ASM4]
Reported Value: 2.94
--
Biosequence: SNRLHPPDIHPNLGPQL [GRR1]
Reported Value: 3.12
--
Biosequence: AAEPMDSKMIQDLSRNT [SNU114]
Reported Value: 2.93
--
Biosequence: HRLIATHTNLERDEQKR [SNF2]
Reported Value: 3.38
--
Biosequence: SVQDLGGSATARHKKKV [YML031W/NDC1]
Reported Value: 2.7
--
Biosequence: VLMGKNTMVRRAIRGFL [RPP0]
Reported Value: 3.27
--
Biosequence: YSTLKELLEYSDDIAEN [YCG1]
Reported Value: 2.81
--
Biosequence: EDMETQASDPSKKKKNI [RPC53]
Reported Value: 3.27
--
Biosequence: MPRLEEIDDFNDIDDLD [SEC65]
Reported Value: 2.71
--
Biosequence: LALERMVPKRSTIITKA [YCS4]
Reported Value: 1.28
--
Biosequence: VITLLNNSSITLRCSVV [YCS4]
Reported Value: 2.04
--
Biosequence: QEYLNPVIDTQIANEFN [YDL116W/NUP84]
Reported Value: 2.85
--
Biosequence: NIKSNDFSIRKTCAKSV [ECM29]
Reported Value: 2.55
--
Biosequence: NYVAVGDVSNLPYLDEL [QCR2]
Reported Value: 3.13
--
Biosequence: GIVDELAYAVLGIALIA [RPN1]
Reported Value: 1.76
--
Biosequence: DVLTLENIQEGTSLTIQ [CDC53]
Reported Value: 3.17
--
Biosequence: EELKDSEINEILARNDE [SNF2]
Reported Value: 3.2
--
Biosequence: IDIINKLILHAIHIFES [YML103C/NUP188]
Reported Value: 1.5
--
Biosequence: AETLAEELINAAKGSST [RPS5]
Reported Value: 2.15
--
Biosequence: KTQCPNYDTCGGESAYF [RPC11]
Reported Value: 3.21
--
Biosequence: SDAQSNLGSNVRNSFPL [REC8]
Reported Value: 3.01
--
Biosequence: SLGIAQPKGVILYGPPG [RPT6]
Reported Value: 2.71
--
Biosequence: ARGLTATGKKSRGINKG [RPL15A]
Reported Value: 3.57
--
Biosequence: GSARTRWEMEAFGEFSL [FAS2]
Reported Value: 1.78
--
Biosequence: NRPDNKNAQYHLLVKQG [RPN7]
Reported Value: 2.86
--
Biosequence: NQFKRIDTLLYLMTYPQ [RET1]
Reported Value: 1.4
--
Biosequence: EETSHLLTVTPGPRLLY [RPN10]
Reported Value: 2.61
--
Biosequence: DGKEDVEKGTPLGKILL [SME1]
Reported Value: 3.57
--
Biosequence: ELPKFILSDSPLELSAP [DIS3]
Reported Value: 2.5
--
Biosequence: DIENKEEEYDETHETNI [YAR002W/NUP60]
Reported Value: 3.34
--
Biosequence: PRDLLRVIIQELRFPSP [PRP28]
Reported Value: 1.74
--
Biosequence: ALYVLRERIRKGLQIYQ [PRP8]
Reported Value: 2.54
--
Biosequence: LQGISTLRPRQYATVSK [RPL34A]
Reported Value: 2.59
--
Biosequence: APLVLLSALDHYERTQT [RPN8]
Reported Value: 2.45
--
Biosequence: YSKAKYPDLQPFVLAEN [CDC53]
Reported Value: 2.3
--
Biosequence: VGEMKLLKKKDDPSKVR [YLR335W/NUP2]
Reported Value: 3.29

---

Some sequences, each annotated with its measured protein stability index.
- Test Summary: protein stability index of a GFP-peptide fusion (yeast GPS) (PSI 1-4); higher = more stable; sorted into four equal gates, so the index is relative within each strain
- Condition Notes: doa10∆

Biosequence: IGTANYKPLIEERMGQI [SMC4]
protein stability index: 3.1
//
Biosequence: KSKLDQDSTSENVKIIN [RPN2]
protein stability index: 3.39
//
Biosequence: KLREKVNDVELAFKKNE [MTW1]
protein stability index: 3.1
//
Biosequence: RGHRIRREFKQYSLERN [PRP8]
protein stability index: 2.44
//
Biosequence: LKRLAWQYIVIDEAHRI [ISW2]
protein stability index: 1.77
//
Biosequence: FQIEADFIGHNSNINTL [ASC1]
protein stability index: 2.1
//
Biosequence: SVDIGVETILSGKARIC [FAS2]
protein stability index: 2.7
//
Biosequence: DCLSFAPTLSQTYINQE [SSN2]
protein stability index: 2.69
//
Biosequence: LLVGLIKTFYWLEQFLS [NUT1]
protein stability index: 2.24
//
Biosequence: SFAIYSSTIDAPAFHTS [SRB8]
protein stability index: 2.21
//
Biosequence: PSVAAEYVYFFNNTSVI [RPC40]
protein stability index: 2.09
//
Biosequence: NWRGREHWKVRNFKKAN [BRN1]
protein stability index: 3.43
//
Biosequence: SRYILFEIIFPPTDTNV [POP5]
protein stability index: 1.54
//
Biosequence: LGGPITKESQPTIEEDL [FAS2]
protein stability index: 3.02
//
Biosequence: PLLPIVEELMKKRRGSR [SNU114]
protein stability index: 2.4

---

- Test Summary: protein stability index of a GFP-peptide fusion (yeast GPS) (PSI 1-4); higher = more stable; sorted into four equal gates, so the index is relative within each strain
- Condition Notes: doa10∆
Criterion met means recorded protein stability index is 3 or above; Criterion not met means it is below 3.

Biosequence: ADVLSILAMTYSENGKH [RPN1]
Cat: Criterion not met
//
Biosequence: CNQMENLLESITKLLEI [YCS4]
Cat: Criterion met
//
Biosequence: DINTVNTNLMNGVNVQI [GRR1]
Cat: Criterion met
//
Biosequence: EREPVPLGILHIPICVT [RRP45]
Cat: Criterion not met
//
Biosequence: ITIQLTRDVEPENLQVT [BRR2]
Cat: Criterion not met
//
Biosequence: LYPCYFDINRSHKEGRR [SEC65]
Cat: Criterion not met
//
Biosequence: LLSFVLGVVFGRGGSGW [YML031W/NDC1]
Cat: Criterion not met
//
Biosequence: YGIFGEGVEYSFLHVDD [POP8]
Cat: Criterion not met
//
Biosequence: EYKLATYGVPGSENKRG [NUT1]
Cat: Criterion met
//
Biosequence: CFVLGIASMSTVRASSL [SMC2]
Cat: Criterion not met
//
Biosequence: FSWISVVNDLVGEKLVV [SIR3]
Cat: Criterion met
//
Biosequence: QSLDTIGGSDAAFEKRY [RPO21]
Cat: Criterion met
//
Biosequence: FRKKRKFELGRQPANTK [RPS8A]
Cat: Criterion not met
//
Biosequence: LLTVTPGPRLLYENIAS [RPN10]
Cat: Criterion not met
//
Biosequence: WPTTHKYPLGHFVRDLG [DIS3]
Cat: Criterion not met
//
Biosequence: DSEKHIDFAPTSPFGGA [RPS9A]
Cat: Criterion not met
//
Biosequence: LQKKVASILLALTQMDQ [RPB3]
Cat: Criterion not met
//
Biosequence: EHHSSVKYASPNLNMKY [FAS2]
Cat: Criterion met
//
Biosequence: FEEWIKMATDNKINSRN [BRN1]
Cat: Criterion met
//
Biosequence: NHNGSALLIEVFTALLR [ITC1]
Cat: Criterion not met
//
Biosequence: KKYTQNNPLLLIVDVKQ [RPN8]
Cat: Criterion not met
//
Biosequence: GQVVLTPLTFALPRGAR [RPL14A]
Cat: Criterion not met
//
Biosequence: PNEFEIQLSTVNRQSPL [RGR1]
Cat: Criterion not met
//
Biosequence: RQSSVGSLNATNFSPTP [SNF2]
Cat: Criterion not met
//
Biosequence: SSLVRRNSVKLLSKLLL [YCS4]
Cat: Criterion not met
//
Biosequence: TKQIQSVRIDGRKVLQK [SIR4]
Cat: Criterion not met
//
Biosequence: RDKKEKKQAQKQTKLRK [SMB1]
Cat: Criterion met
//
Biosequence: DETKGFDDNDSGNNYND [MED2]
Cat: Criterion met
//
Biosequence: SGTFYRYNAKAIGSGSE [PUP2]
Cat: Criterion met
//
Biosequence: LGKKKNVKEEETVAKSK [RPS8A]
Cat: Criterion met
//
Biosequence: LVALKRNADELSSYQKK [PRE5]
Cat: Criterion not met
//
Biosequence: GGIETILEHTLFKGTGF [PRP8]
Cat: Criterion met
//
Biosequence: FNTFWDEKGNEIKVGKQ [ARP9]
Cat: Criterion met
//
Biosequence: RGIPRISTLFQRDRHTL [PRP8]
Cat: Criterion not met
//
Biosequence: NLSSNVNFTEIGGLIPQ [YCS4]
Cat: Criterion not met
//
Biosequence: EDETLRRIKEAEENLKK [YIL149C/MLP2]
Cat: Criterion met
//
Biosequence: VGQAGRPKKITGWITQS [RPN1]
Cat: Criterion not met
//
Biosequence: GLESLLNIGLGAVGLKD [YCS4]
Cat: Criterion not met
//
Biosequence: ASSGPRYIVGVRNSVDR [RPT4]
Cat: Criterion not met
//
Biosequence: EDFEHNNLSSMNLDFDI [MCD1]
Cat: Criterion not met
//
Biosequence: RTAPKSDNVYLKLLVKL [RPL18A]
Cat: Criterion not met
//
Biosequence: VRNACKRLIAHDWLNAL [YCG1]
Cat: Criterion not met
//
Biosequence: KNDEVLGLLLPIAASTD [RPN1]
Cat: Criterion not met
//
Biosequence: NCEYEDPPNEGDPFDYK [RPB3]
Cat: Criterion met
//
Biosequence: KESPWKILMYQYNIPPE [RRP6]
Cat: Criterion not met
//
Biosequence: LTVSIKIALMNIPKPLN [RGR1]
Cat: Criterion not met
//
Biosequence: KNSSQLLNEWSHNVDEL [RPN5]
Cat: Criterion not met
//
Biosequence: PYEMYKYVHVSEVGNCS [FAS2]
Cat: Criterion not met
//
Biosequence: EPQGAVTHMDQIFVRGS [SMD3]
Cat: Criterion not met
//
Biosequence: STVKGSVDLEKLAFGLT [TAF14]
Cat: Criterion met
//
Biosequence: YVDPETTYTYQQPNPLQ [ROX3]
Cat: Criterion not met
//
Biosequence: IEEEIFDDSSRIVNHKT [LIN1]
Cat: Criterion met
//
Biosequence: DADKLSFNCENFFQAPQ [YML031W/NDC1]
Cat: Criterion not met
//
Biosequence: QNDFLFSVGESLSVVAG [ECM29]
Cat: Criterion not met
//
Biosequence: VKTPKKTKYILQRPTAT [CSN12]
Cat: Criterion not met
//
Biosequence: GKTLAFVIPILIKMSRS [PRP28]
Cat: Criterion not met
//
Biosequence: PPAYALLGSCQTDGMGL [RPC25]
Cat: Criterion not met
